The measurements presented in this section are drawn from patent US20220119489A1.

- Target: CD82 (mouse) (mouse, UniProt P40237)
- Test Protocol: IP with anti CD82 antibodies, mouse muscle tissue, mass spectrometry
Catalogue of Total readings, one per entry.
The answer should be a number; do not append a unit.

Known results for binders:
1. IGHG_RABIT (other) GQPKAPSVFPLAPCCGDTPSSTVTLGCLVKGYLPEPVTVTWNSGTLTNGVRTFPSVRQSSGLYSLSSVVSVTSSSQPVTCNVAHPATNTKVDKTVAPSTCSKPTCPPPELLGGPSVFIFPPKPKDTLMISRTPEVTCVVVDVSQDDPEVQFTWYINNEQVRTARPPLREQQFNSTIRVVSTLPITHQDWLRGKEFKCKVHNKALPAPIEKTISKARGQPLEPKVYTMGPPREELSSRSVSLTCMINGFYPSDISVEWEKNGKAEDNYKTTPAVLDSDGSYFLYNKLSVPTSEWQRGDVFTCSVMHEALHNHYTQKSISRSPGK : 25
2. PRDX1_MOUSE (enzyme) SSGNAKIGYPAPNFKATAVMPDGQFKDISLSEYKGKYVVFFFYPLDFTFVCPTEIIAFSDRADEFKKLNCQVIGASVDSHFCHLAWINTPKKQGGLGPMNIPLISDPKRTIAQDYGVLKADEGISFRGLFIIDDKGILRQITINDLPVGRSVDEIIRLVQAFQFTDKHGEVCPAGWKPGSDTIKPDVNKSKEYFSKQK : 3

Please look at the following binder next.
Prompt: Report Total for IGG2B_MOUSE (other) KTTPPSVYPLAPGCGDTTGSSVTLGCLVKGYFPESVTVTWNSGSLSSSVHTFPALLQSGLYTMSSSVTVPSSTWPSQTVTCSVAHPASSTTVDKKLEPSGPISTINPCPPCKECHKCPAPNLEGGPSVFIFPPNIKDVLMISLTPKVTCVVVDVSEDDPDVQISWFVNNVEVHTAQTQTHREDYNSTIRVVSTLPIQHQDWMSGKEFKCKVNNKDLPSPIERTISKIKGLVRAPQVYILPPPAEQLSRKDVSLTCLVVGFNPGDISVEWTSNGHTEENYKDTAPVLDSDGSYFIYSKLNMKTSKWEKTDSFSCNVRHEGLKNYYLKKTISRSPGK please.
Response: 1
